Attribution: paper PMC6489498

We begin with a simple list: items and their reported pKa.
Assay: MBP hydroxyl pKa from pH-dependent optical spectra
Assay type: physicochemical
Conditions: solution of the free MBP, pH varied (UV-vis optical spectra)

Known results for molecules:
# Molecule, Measured Property, Val
data = [
    ("Cc1occc(=S)c1O [TM, 3-hydroxy-2-methyl-4H-pyran-4-thione]", "pKa", "~9"),
    ("Cc1cc(=S)c(O)co1 [ATM, 5-hydroxy-2-methyl-4H-pyran-4-thione]", "pKa", "~8.3"),
]

Here's the next entry for you.
Identify measured pKa corresponding to Oc1coccc1=S [TPMA, 3-hydroxy-4H-pyran-4-thione] ~9.5
